target: hMC4R (Homo sapiens, UniProt P32245); assay: PRESTO-Tango β-arrestin2 recruitment assay, HTLA cells transfected with hMC4R; assay type: cell-based
Sequence (P32245 whole entry): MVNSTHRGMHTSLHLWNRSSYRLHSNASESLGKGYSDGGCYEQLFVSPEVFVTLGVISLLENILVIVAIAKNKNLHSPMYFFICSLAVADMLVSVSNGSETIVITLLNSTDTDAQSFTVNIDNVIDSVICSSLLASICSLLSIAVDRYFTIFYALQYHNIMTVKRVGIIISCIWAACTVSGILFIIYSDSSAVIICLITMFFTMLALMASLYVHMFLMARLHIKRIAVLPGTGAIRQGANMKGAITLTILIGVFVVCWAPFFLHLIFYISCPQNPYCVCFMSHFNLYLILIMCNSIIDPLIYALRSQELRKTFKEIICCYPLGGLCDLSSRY
readout-type: EC50 (nM)
Answers are plain numbers, in nM.

Challenge: Quick one: EC50 for CC(=O)NCCCOCCOCCOCCCNC(=O)COCC(=O)N[C@@H](Cc1c[nH]cn1)C(=O)N[C@H](Cc1ccccc1)C(=O)N[C@@H](CCCNC(=N)N)C(=O)N[C@@H](Cc1c[nH]c2ccccc12)C(N)=O ?
Response given: 140

###

target: hMC4R (Homo sapiens, UniProt P32245); assay type: cell-based
readout-type: EC50 (nM)
Give bare numbers, in nM.

Challenge: Quick one: EC50 for CC(=O)NCCCOCCOCCOCCCNC(=O)COCC(=O)N[C@@H](Cc1c[nH]cn1)C(=O)N[C@H](Cc1ccccc1)C(=O)N[C@@H](CCCNC(=N)N)C(=O)N[C@@H](Cc1c[nH]c2ccccc12)C(N)=O ?
Response given: 2
